system: Isogenic E. coli J58 strain carrying TEM-26; assay: MIC determination, isogenic E. coli strains; format: cell-based; conditions: isogenic E. coli strain, TEM-26; CAMH broth, 20 μM Apo-Transferrin, 37° C., 18 hours
Test Readout: Mimimum Inhibitory Concentrations, TEM-26 (microgram/mL)
Response body: numeric value in microgram/mL, unit text excluded.

Previously resolved entries follow.
Molecule	Val
CO/N=C(\C(=O)N[C@@H]1C(=O)N2C(C(=O)O)=C(C=Cc3ccc(C[n+]4ccc(OC)c(OC)c4)cc3[N+](=O)[O-])CS[C@H]12)c1csc(N)n1 (mixture of isomers)	32
CC(C)(O/N=C(\C(=O)N[C@@H]1C(=O)N2C(C(=O)O)=C(C=Cc3ccc(C[N+]4(C)CCc5cc(O)c(O)cc5C4)cc3)CS[C@H]12)c1nsc(N)n1)C(=O)O (mixture of isomers)	1
CC(C)(O/N=C(\C(=O)N[C@@H]1C(=O)N2C(C(=O)O)=C(C=Cc3ccc(C[N+]4(C5CCC5)CCc5ccc(O)c(O)c5C4)cc3)CS[C@H]12)c1csc(N)n1)C(=O)O (mixture of isomers)	0.25

// moving on: another record for Mimimum Inhibitory Concentrations, TEM-26
Reported Mimimum Inhibitory Concentrations, TEM-26 for CC(C)(O/N=C(\C(=O)N[C@@H]1C(=O)N2C(C(=O)O)=C(C=Cc3ccc(C[n+]4ccc(O)c(O)c4)cc3)CS[C@H]12)c1csc(N)n1)C(=O)O (mixture of isomers) : what is it?
2

----------
test system: Pseudomonas aeruginosa PA (URMC-3); assay: MIC determination; type: cell-based; details: Pseudomonas aeruginosa; PA (URMC-3); CAMH broth, 20 μM Apo-Transferrin, 37° C., 18 hours; read-out: Minimum Inhibitory Concentrations, PA (URMC-3)
Test Readout: MIC (µg/mL)
Answer format: numeric, µg/mL implied, no suffix.

Molecule	Measurement Unit	MIC
CC(C)(O/N=C(\C(=O)N[C@@H]1C(=O)N2C(C(=O)O)=C(C=Cc3ccc(C[N+]4(C)CCc5c(Cl)c(O)c(O)c(Cl)c5C4)cc3)CS[C@H]12)c1csc(N)n1)C(=O)O (mixture of isomers)	µg/mL	0.5

# ---- query molecule ----
# MIC lookup, item CC(C)(O/N=C(\C(=O)N[C@@H]1C(=O)N2C(C(=O)O)=C(C=Cc3ccc(C[N+]4(C)CCc5ccc(O)c(O)c5C4)cc3)CS[C@H]12)c1csc(N)n1)C(=O)O (mixture of isomers)
0.5

----------
tested on: KP (URMC-2); assay: MIC determination; assay type: cell-based, Klebsiella pneumoniae; settings: CAMH broth, 20 μM Apo-Transferrin, 37° C., 18 hours
Collected Minimum Inhibitory Concentrations, KP (URMC-2) values appear next to each entry.
Could you give me the number in microgram/mL? Just the number is fine.

Use these answered entries as a reference point.
Molecule	Measurement Unit	Val
CC(C)(O/N=C(\C(=O)N[C@@H]1C(=O)N2C(C(=O)O)=C(C=Cc3ccc(C[N+]4(C)Cc5c(Cl)c(O)c(O)c(Cl)c5C4)cc3)CS[C@H]12)c1csc(N)n1)C(=O)O (mixture of isomers)	microgram/mL	0.13
CC(C)(O/N=C(\C(=O)N[C@@H]1C(=O)N2C(C(=O)O)=C(C=Cc3ccc(C[N+]4(C)CCc5ccc(O)c(O)c5C4)cc3)CS[C@H]12)c1csc(N)n1)C(=O)O (mixture of isomers)	microgram/mL	0.25

Please give the measured Minimum Inhibitory Concentrations, KP (URMC-2) for this molecule: CC(C)(O/N=C(\C(=O)N[C@@H]1C(=O)N2C(C(=O)O)=C(C=Cc3ccc(C[N+]4(C)CCc5cc(O)c(O)cc5C4)cc3)CS[C@H]12)c1csc(N)n1)C(=O)O (mixture of isomers)
0.25
